tested on: MILI (PIWIL2) piRISC loaded with L1MC piRNA (26 nt); test: pre-steady-state target cleavage rate (min^-1); guide: L1MC piRNA 5'p-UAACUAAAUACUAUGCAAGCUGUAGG; higher = faster piRNA-guided slicing of the target; details: auxiliary factor: 500 nM mouse GTSF1;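 note: 1 nM active piRISC with 0.1 nM target library at 33 °C single turnover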
PARAMETER_MEASURED: pre-steady-state target cleavage rate
Form: value (number only, do not type unit).

// worked examples, pre-steady-state target cleavage rate included
UCCUCCUACAGCUUGCAUAGAUUUUUCAAA; 0.0441
UCCUCCUACAGCAUGCAUAGUAUUUUGUUA; 0.143
UCCUGGAACAGCUUGCUUACUAUUUAGUUA; 0.0834
UCCUGGAUGUGCUUGCAUAGUAAAAAGUUA; 0.0196
UCCUGGAUGUGCUUGCAUAGUAUAUUGUUA; 0.0146
UCCUGGAUCAGCAAGCAUAGUAUUUAGUUA; 0.231

Attention now shifts to the item below.
[in] Kindly state the measured pre-steady-state target cleavage rate obtained for "UCCUGGUACAGCUUGCAUAGUAUUUUGAAA" with MILI (PIWIL2) piRISC loaded with L1MC piRNA (26 nt).
[out] 0.06

* * *

tested on: EfPiwi piRISC loaded with L1MC piRNA (26 nt); assay: pre-steady-state target cleavage rate (min^-1); auxiliary factor: 500 nM Ephydatia muelleri Gtsf1; guide: L1MC piRNA 5'p-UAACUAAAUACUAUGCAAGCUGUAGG; higher = faster piRNA-guided slicing of the target
Outcome: 1.0 for pre-steady-state target cleavage rate of at least 0.007; 0.0 for anything lower.

UCCUGGAUGAGCUUGCAUAGUAAAUAGUUA; 0.0
UCCUGCAACAGCAUGCAUAGUAUUUAGUUA; 1.0
UCCUGCUACAGAUUGCAUAGUAUUUAGUUA; 1.0
UCCUGGUACAGCUAGCAUAGUAUUUAGAUA; 0.0
UCCUGGAACAGCUUGCAUAGUAUAAUGUUA; 0.0
UCCUGGGACAGCUUGCAUAGUAUUUAGUUA; 1.0

[in] Does the reported pre-steady-state target cleavage rate for "UCCUGGAUGUCCUUGCAUAGUAGUUAGUUA" fall at or above the 0.007 mark?
[out] 0.0

[in] Reported pre-steady-state target cleavage rate at or above 0.007? "UCCUGGAUGAGCUCUGCAUAGUAUUUAGUUA"
[out] 1.0

[in] In plain terms: is recorded pre-steady-state target cleavage rate at least 0.007 for "UCCUCCUACAGCUAGCAUAGUAUUUUGUUA" ?
[out] 1.0

* * *

system: MILI (PIWIL2) piRISC loaded with L1MC piRNA (26 nt); experiment: pre-steady-state target cleavage rate (min^-1); guide: L1MC piRNA 5'p-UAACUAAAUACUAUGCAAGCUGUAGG; higher = faster piRNA-guided slicing of the target; conditions: auxiliary factor: 500 nM mouse GTSF1;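 note: 1 nM active piRISC with 0.1 nM target library at 33 °C single turnover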
Rule: pre-steady-state target cleavage rate under 0.06 gives NO, otherwise YES.

UCCUGGAUGUGCUUGCAUAGUAUUUAGUUC [g2:g20:cont:t1C]; YES
UCCUGGAUCAGCUAGCAUAGUAUUUAGUAA; YES
UCCUGGAACAGCUUCCAAAGUAUUUAGUUA; YES
UCCUGGAACAGCUUGCAUAUAUUUAGUUA; NO
UCCUGGAUCAGCUUGCAUAGUUUUUAGUAA; NO

Turning now to a further record.
[in] hey, is pre-steady-state target cleavage rate for this one >= 0.06? "UCCUGCUACAACUUGCAUAGUAUUUAGUUA"
[out] YES

* * *

Parameter: pre-steady-state target cleavage rate. Scope: all listed entries.
system: EfPiwi piRISC loaded with L1MC piRNA (26 nt); test: pre-steady-state target cleavage rate (min^-1); auxiliary factor: 500 nM Ephydatia muelleri Gtsf1; guide: L1MC piRNA 5'p-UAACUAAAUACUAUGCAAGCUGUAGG; higher = faster piRNA-guided slicing of the target
The answer should be a number; do not append a unit.

UCCUGGAACAGCUUGGCAUAGUAUUUAGUUA; 0.0094

[in] If you can, please state the reported pre-steady-state target cleavage rate value of "UCCUGGAUCAGCUUGCAUAGUAUUUAGUA" .
[out] 0.00808

[in] Item under review: "UCCUGGAACAGCUUGCUUAGUAAUUAGUUA" . Reported pre-steady-state target cleavage rate?
[out] 0.00639

[in] What pre-steady-state target cleavage rate value was documented for this sequence, "UCCUGGAACAGGUUGCAUAGUUUUUAGUUA" ?
[out] 0.00366

[in] Please give the measured pre-steady-state target cleavage rate for this sequence: "UCCUGCUACAGCUUGCAUAGUAUUUUGAAA"
[out] 0.0045

[in] Consider the sequence "UCCUGGAUGAGCUUGCAUAGUAUUUACAAA" and give its measured pre-steady-state target cleavage rate.
[out] 0.00416

[in] May I ask what pre-steady-state target cleavage rate has been recorded for "UCCUGGAACAGCAUCCAUAGUAUUUAGUUA" ?
[out] 0.0025

* * *

test system: MILI (PIWIL2) piRISC loaded with L1MC piRNA (26 nt); assay: pre-steady-state target cleavage rate (min^-1); guide: L1MC piRNA 5'p-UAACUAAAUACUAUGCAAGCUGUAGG; higher = faster piRNA-guided slicing of the target; details: auxiliary factor: none (no GTSF1);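 note: 1 nM active piRISC with 0.1 nM target library at 33 °C single turnover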
Rule: pre-steady-state target cleavage rate under 0.006 gives FALSE, otherwise TRUE.

UCCUGGUAAAGCUUGCAUAGUAUUUAGUUA; TRUE
UCCUGGUACGCUUGCAUAGUAUUUAGUUA; TRUE
UCCUGCUACAGCAUGGAUAGUAUUUAGUUA; TRUE
UCCUGCUACAGCUUCGAUAGUAUUUAGUAA; FALSE

[in] I'd appreciate it if you could say whether "UCCUGGAAAGCUUGCAUAGUAUUUAGUUA" has pre-steady-state target cleavage rate at least equal to 0.006.
[out] TRUE

[in] Hi, just wondering whether "UCCUGGAUCUGCUUGCAUACUAUUUAGUUA" shows pre-steady-state target cleavage rate of 0.006 or higher.
[out] FALSE

* * *

Readings of pre-steady-state target cleavage rate for the listed sequences
system: MILI (PIWIL2) piRISC loaded with L1MC piRNA (26 nt); test: pre-steady-state target cleavage rate (min^-1); guide: L1MC piRNA 5'p-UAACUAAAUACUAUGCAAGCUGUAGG; higher = faster piRNA-guided slicing of the target; details: auxiliary factor: none (no GTSF1);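 note: 1 nM active piRISC with 0.1 nM target library at 33 °C single turnover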

// below: answered sequences
UCCUGGAAGUCCUUGCAUAGUAUUUAGUUA; 0.00649
UCCUGGAUGUGGUUGCAUAGUUUUUAGUUA; 0.00954

[in] Look up pre-steady-state target cleavage rate for this sequence: "UCCUCCUACUGCUUGCAUAGAAUUUAGUUA"
[out] 0.00232

[in] Given the sequence "UCCUGGAUCACCUUGCAUACUAUUUAGUUA" , what is its reported pre-steady-state target cleavage rate?
[out] 0.00336

[in] For "UCCUGGUAACAGCUUGCAUAGUAUUUAGUUA" , what is its reported pre-steady-state target cleavage rate?
[out] 0.016

* * *

tested on: MILI (PIWIL2) piRISC loaded with piRNA #1 (26 nt); experiment: pre-steady-state target cleavage rate (min^-1); guide: piRNA #1 5'p-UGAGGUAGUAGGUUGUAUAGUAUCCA; MIWI and MILI are mouse PIWI proteins and EfPiwi is from a freshwater sponge; tags in brackets are library labels; higher = faster piRNA-guided slicing of the target; settings: auxiliary factor: 500 nM mouse GTSF1;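 note: 1 nM active piRISC with 0.1 nM target library at 33 °C single turnover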
# thresholds on pre-steady-state target cleavage rate define classes: low band (below 0.04), middle band (0.04 to below 0.1), high band (0.1 or more)

A selection of reference data follows.
GGAGACCUAUGAUAACAACCUACAUGGAGA [g8:g16:cont:t1A]; low band
GGAGACCUUACUAUACAACCUACUACACUCA; high band
GGAGAGGAUACUGUACAACCUACUACCUCA; high band
GGAGACCAUACAUAACAACCUACUACCUCA; low band
GGAGUGGAUACUAUUCAACCAACUACCUCA; low band
GGAGACCCUACUAUACAACCUACUACCUCA; high band
GGAGACGAUACAAUACAACGUACUACCUCA; low band
GGAGACCAUACUAAAGAACCUACUACCUCA; high band

[in] Place this sequence in its band: "GGAGACCUAUGAAUACAACCUACUAACUCA"
[out] low band

[in] Could you tell me which band "GGAGACCUUACUAUAAACCUACUACCUCA" belongs to?
[out] low band

[in] Band for "GGAGACCUAUGAUUACAUCCUACUACCACA" ?
[out] low band

[in] Record "GGAGACGAUACUAAUGAACCUACUACCUCA" — which class?
[out] middle band

[in] Where would "GGAGACCAUACUAUACAACCUACAACCUCA" land among the classes by reported pre-steady-state target cleavage rate?
[out] high band

[in] Form field 'band' for "GGAGACCUAUCUAAACUACCUACUACCUCA"
[out] middle band

[in] Each sequence maps to one class by pre-steady-state target cleavage rate. Which class for "GGAGACCUAUCAAUACUACCUACUACCUCA" ?
[out] low band

[in] In plain terms, what class is "GGAGACCUAACUAUCACAACCUACUACCUCA" ?
[out] middle band

[in] Which class is correct for the following sequence? "GGAGAGGAUACUAUAGAACCUACUUCCUCA"
[out] low band

[in] State the class of the sequence shown: "GGAGUGGAUACUAUCAACCUACUACCUCA"
[out] high band

[in] State the band of "GGAGAGGAUACUAUAAACCUACUACCUCA"
[out] low band

[in] For the record "GGAGACCUAUGAUAUGUUCCUAGUACCUGA" , report the class its pre-steady-state target cleavage rate corresponds to.
[out] low band

[in] Form field 'band' for "GGAGACCUAACUAGUACAACCUACUACCUCA"
[out] middle band

[in] Returns: class label. Input: "GGAGUGGUUACUUUACAACCUACUACCUCA"
[out] high band

[in] Which category does the recorded pre-steady-state target cleavage rate put "GGAGACCAUACUAUACAGCCUACUACCUCA" in?
[out] high band
